Assay: MTT assay, HL-7702 cells
Type: cell-based, human
Conditions: HL-7702 cells (normal liver cells); normal human liver cells, MTT, 72 h; read-out: Cytotoxic activity (IC50) HL-7702
outcome.measure: IC50 at 72 h

O=c1c2c3c(sc2nc(-c2cccs2)n1CCc1ccc(O)cc1)CCCC3 | > 100 µM
O=c1c2c3c(sc2nc(-c2ccc(Cl)cc2)n1Cc1ccccc1)CCCC3 | > 100 µM
O=c1c2c3c(sc2nc(-c2cccs2)n1Cc1ccccc1)CCCC3 | > 100 µM
O=c1c2c3c(sc2nc(-c2ccco2)n1Cc1ccccc1)CCCCC3 | > 100 µM

Entry under test: O=c1c2c3c(sc2nc(-c2cccc(Cl)c2)n1CCc1ccc(O)cc1)CCCC3 . Its IC50 at 72 h was > 100 µM
